# assayOverview: Selectivity index, ratio of IC50 for HEK293 cells to IC50 for human A2780 cells
# Format: toxicity
# experimentalConditions: HEK293 cells versus A2780 cells, read-out: Ratio IC50
selectivity ratio for assorted compounds

{"moleculeSmiles": "CC1(C)O[C@@]23CC[C@]4(C)c5cc6[nH]c7ccccc7c6cc5CC[C@H]4C2=CC(=O)[C@@H]1O3", "selectivity ratio": 3.3}
{"moleculeSmiles": "CC(C)(O)[C@@H]1CC[C@]2(C)[C@H](CC[C@@]3(C)[C@H]2CC[C@H]2Cc4c([nH]c5ccccc45)[C@@]23C)O1", "selectivity ratio": 8.1}
{"moleculeSmiles": "CC(C)=CCC[C@]1(C)[C@@H](O)CC[C@@]2(C)[C@H]1CC[C@H]1Cc3c([nH]c4ccccc34)[C@@]12C", "selectivity ratio": 5.4}
